Data origin: the supplement of paper PMC10567573

Entries and their protein stability index values follow.
# Method description: protein stability index of a GFP-peptide fusion (GPS, HEK-293T) (PSI 1-6); higher = more stable;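 also: 24-mer peptide tiles fused after GFP, lentivirally expressed, FACS-sorted into six equal bins by GFP/DsRed ratio, decoded by Illumina sequencing, PSI is the read-weighted mean bin number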
# Test settings: treatment: MLN4924 1 uM, 8 h; c terminus: a fixed tail appended
Give the figure only, with no unit attached.

Known protein stability index results, listed for orientation:
In one line, give reported protein stability index of the entry ISNIFSNYFSAMYSSEDSTLASVP [ELF3] . 2.1

In one line, give reported protein stability index of the entry SPSTLIGSLRTLELGSESQGASES [HDAC6] . 4.92

In one line, give reported protein stability index of the entry QALGEHLKLRQQVIATATVYFKRF [CCNC] . 2.48

In one line, give reported protein stability index of the entry LRHSNPRADPLVCATGLLGSAPFL [SPNS1] . 2.75

In one line, give reported protein stability index of the entry PSVPDNAELVLLTLGQAWQGYVSD [DFFB] . 2.84

Further cases:
In one line, give reported protein stability index of the entry YAPVGFCLLVLRLFLGIHVFLVSC [AUP1] . 2.88

In one line, give reported protein stability index of the entry TSSLRLNWEAPPGAFDSFLLRFGV [TNXB] . 2.21

In one line, give reported protein stability index of the entry ENLEGVPSVCSENIHPQVLLPDQA [ZNF263] . 4.96

###

# Method description: protein stability index of a GFP-peptide fusion (GPS, HEK-293T) (PSI 1-6); higher = more stable
# Test settings: treatment: MLN4924 1 uM, 8 h; c terminus: a fixed tail appended
Tag: Met if measured protein stability index is not below 3, Not met if it is.

Example entries begin here.
I'd appreciate it if you could say whether VQREKDLPNYNWNSFGLRFGKREA [KISS1] has protein stability index at least equal to 3. Met

I'd appreciate it if you could say whether MPNGCSDDVLPWRRTAENKLDTKY [DCTD] has protein stability index at least equal to 3. Met

I'd appreciate it if you could say whether WELGGGTSLLDLISIPITGDTLRT [DYNC2LI1] has protein stability index at least equal to 3. Not met

Further cases:
I'd appreciate it if you could say whether LEWNSLGTWDDAFATFCGGLAANG [LRRC45] has protein stability index at least equal to 3. Not met

I'd appreciate it if you could say whether INCQLSDPSSTKPGTLLKTSPSPE [TRIM14] has protein stability index at least equal to 3. Met

I'd appreciate it if you could say whether VHSDLSSIVILDNSPGAYRSHPDN [CTDNEP1] has protein stability index at least equal to 3. Met

###

# Method description: protein stability index of a GFP-peptide fusion (GPS, HEK-293T) (PSI 1-6); higher = more stable
# Test settings: treatment: MLN4924 1 uM, 8 h; c terminus: a fixed tail appended
Entries and their protein stability index values follow.
Give the figure only, with no unit attached.

In one line, give reported protein stability index of the entry HSRFVELSEAYRVLSREQSRRSYD [DNAJC4] . 3.7

In one line, give reported protein stability index of the entry SEVTELRRVLQGLEIELQSQLSMK [KRT16] . 2.33

In one line, give reported protein stability index of the entry LGLLFERHWHRPVLMAVSVHSERK [SCNN1D] . 2.33

In one line, give reported protein stability index of the entry CSSCQRSWASAQVQILCHTYWEHW [RTP4] . 2.36

In one line, give reported protein stability index of the entry FPTVVWTWWIMFLSTFSVPYFLFQ [SOAT1] . 2.99

In one line, give reported protein stability index of the entry EPVIKVAAIDNGLAFPLKHPDSWR [PI4K2A] . 3.02

Consider the record given below.
In one line, give reported protein stability index of the entry DQEMARDLVERALYSMECAFHPLF [TCF25] . 2.09
